- SYSTEM_NAME: purified DHFR of the reference strain S. aureus ATCC 25923 (Staphylococcus aureus)
- PROTOCOL_NOTES: Inhibition of purified DHFR of reference strain S. aureus ATCC 25923
MEASURE_NAME: pIC50
Give bare numbers, as −log10 of the molar value.

Determine reported pIC50 for COc1cc(Cc2cnc(N)nc2N)cc(/C=C/C(=O)N2CCc3ccccc3C2c2ccc(Cl)nc2)c1OC (racemic) ; test system: purified DHFR of the reference strain S. aureus ATCC 25923 (Staphylococcus aureus).
9.10

Determine reported pIC50 for COc1cc(Cc2cnc(N)nc2N)cc(/C=C/C(=O)N2CCc3ccccc3C2c2ccc(C#N)cc2)c1OC (racemic) ; test system: purified DHFR of the reference strain S. aureus ATCC 25923 (Staphylococcus aureus).
9.30

Determine reported pIC50 for COc1cc(Cc2cnc(N)nc2N)cc(/C=C/C(=O)N2CCc3ccccc3C2c2cccs2)c1OC (racemic) ; test system: purified DHFR of the reference strain S. aureus ATCC 25923 (Staphylococcus aureus).
8.80

Determine reported pIC50 for COc1cc(Cc2cnc(N)nc2N)cc(/C=C/C(=O)N2CCc3ccccc3[C@@H]2c2ccccn2)c1OC ; test system: purified DHFR of the reference strain S. aureus ATCC 25923 (Staphylococcus aureus).
8.30

Determine reported pIC50 for COc1cc(Cc2cnc(N)nc2N)cc(/C=C/C(=O)N2CCc3ccccc3C2c2ccccn2)c1OC (racemic) ; test system: purified DHFR of the reference strain S. aureus ATCC 25923 (Staphylococcus aureus).
8.05

Could you report pIC50 for every entry in the following list?
1. COc1cc(Cc2cnc(N)nc2N)cc(/C=C/C(=O)N2CCc3ccccc3C2c2ccc(C)cc2)c1OC (racemic)
2. COc1cc(Cc2cnc(N)nc2N)cc(/C=C/C(=O)N2CCc3ccccc3C2c2ccc(C(N)=O)nc2)c1OC (racemic)

9.70
8.92

====

For each record, write down the corresponding log10(IC50).
- SYSTEM_NAME: purified DHFR of the multiresistant strain S. aureus 157/4696 (Staphylococcus aureus, UniProt P13955)
- PROTOCOL_NOTES: Inhibition of purified DHFR of multiresistant strain S. aureus 157/4696
- From the text: The inhibition of this enzyme was taken as a measurement of the antibacterial activity.
# values: log10(IC50), units nM

// below: answered molecules
Read the entry COc1cc(Cc2cnc(N)nc2N)cc(/C=C/C(=O)N2CCc3ccccc3C2c2cccs2)c1OC (racemic) and write its reported log10(IC50).
0.26

Read the entry COc1cc(Cc2cnc(N)nc2N)cc(/C=C/C(=O)N2CCc3ccccc3C2c2ccc(Cl)cn2)c1OC (racemic) and write its reported log10(IC50).
0.23

Read the entry COc1cc(Cc2cnc(N)nc2N)cc(/C=C/C(=O)N2CCc3ccccc3C2c2ccc(C)cc2)c1OC (racemic) and write its reported log10(IC50).
0.68

Could you report log10(IC50) for every entry in the following list?
1. COc1cc(Cc2cnc(N)nc2N)cc(/C=C/C(=O)N2CCc3ccccc3C2c2ccc(C(N)=O)nc2)c1OC (racemic)
2. COc1cc(Cc2cnc(N)nc2N)cc(/C=C/C(=O)N2CCc3ccccc3C2c2ccc(S(C)(=O)=O)cc2)c1OC (racemic)
3. COc1cc(Cc2cnc(N)nc2N)cc(/C=C/C(=O)N2CCc3ccccc3C2c2ccc(O)cc2)c1OC (racemic)
4. COc1cc(Cc2cnc(N)nc2N)cc(/C=C/C(=O)N2CCc3ccccc3[C@@H]2c2ccccn2)c1OC
5. COc1cc(Cc2cnc(N)nc2N)cc(/C=C/C(=O)N2CCc3ccccc3C2c2ccccn2)c1OC (racemic)
6. COc1cc(Cc2cnc(N)nc2N)cc(/C=C/C(=O)N2CCc3ccccc3C2c2ccc(C)nc2)c1OC (racemic)

1. 0.26
2. 0.08
3. 1.11
4. 0.90
5. 0.98
6. 0.11

====

- SYSTEM_NAME: purified DHFR of the reference strain S. aureus ATCC 25923 (Staphylococcus aureus)
- PROTOCOL_NOTES: Inhibition of purified DHFR of reference strain S. aureus ATCC 25923
MEASURE_NAME: pIC50
Give bare numbers, as −log10 of the molar value.

Read the entry COc1cc(Cc2cnc(N)nc2N)cc(/C=C/C(=O)N2CCc3ccccc3C2c2ccc(C)nc2)c1OC (racemic) and write its reported pIC50.
8.74

Read the entry COc1cc(Cc2cnc(N)nc2N)cc(/C=C/C(=O)N2CCc3ccccc3C2c2ccc(Cl)cn2)c1OC (racemic) and write its reported pIC50.
8.62

Read the entry COc1cc(Cc2cnc(N)nc2N)cc(/C=C/C(=O)N2CCc3ccccc3C2c2ccc(O)cc2)c1OC (racemic) and write its reported pIC50.
8.26

Could you report pIC50 for every entry in the following list?
1. COc1cc(Cc2cnc(N)nc2N)cc(/C=C/C(=O)N2CCc3ccccc3C2c2ccc(S(C)(=O)=O)cc2)c1OC (racemic)
2. COc1ccc2c(c1)C(c1ccccn1)N(C(=O)/C=C/c1cc(Cc3cnc(N)nc3N)cc(OC)c1OC)CC2 (racemic)

1: 9.15; 2: 8.30

====

- SYSTEM_NAME: purified DHFR of the opportunistic pathogen P. carinii (Pneumocystis carinii)
Checkbox rule: IC50 lower than 8 µM = met; IC50 not lower than 8 µM = not met.

Observe how each entry below is paired with its result.
Does the reported IC50 of the following compound sit strictly below 8 µM? COc1cc(Cc2cnc(N)nc2N)cc(/C=C/C(=O)N2CCc3ccccc3C2c2ccccn2)c1OC (racemic)
not met

Does the reported IC50 of the following compound sit strictly below 8 µM? COc1cc(Cc2cnc(N)nc2N)cc(/C=C/C(=O)N2CCc3ccccc3C2c2ccc(O)cc2)c1OC (racemic)
met

Does the reported IC50 of the following compound sit strictly below 8 µM? COc1cc(Cc2cnc(N)nc2N)cc(/C=C/C(=O)N2CCc3ccccc3C2c2ccc(Cl)nc2)c1OC (racemic)
met

Does the reported IC50 of the following compound sit strictly below 8 µM? COc1cc(Cc2cnc(N)nc2N)cc(/C=C/C(=O)N2CCc3ccccc3C2c2ccc(C(N)=O)nc2)c1OC (racemic)
not met

Does the reported IC50 of the following compound sit strictly below 8 µM? COc1cc(Cc2cnc(N)nc2N)cc(/C=C/C(=O)N2CCc3ccccc3C2c2cccs2)c1OC (racemic)
met

Others:
Does the reported IC50 of the following compound sit strictly below 8 µM? COc1cc(Cc2cnc(N)nc2N)cc(/C=C/C(=O)N2CCc3ccccc3C2c2ccc(S(C)(=O)=O)cc2)c1OC (racemic)
met

Does the reported IC50 of the following compound sit strictly below 8 µM? COc1cc(Cc2cnc(N)nc2N)cc(/C=C/C(=O)N2CCc3ccccc3C2c2ccc(C)nc2)c1OC (racemic)
not met

Does the reported IC50 of the following compound sit strictly below 8 µM? COc1cc(Cc2cnc(N)nc2N)cc(/C=C/C(=O)N2CCc3ccccc3C2c2ccc(Cl)cn2)c1OC (racemic)
not met

====

For each record, write down the corresponding IC50.
- SYSTEM_NAME: purified DHFR of the multiresistant strain S. aureus 157/4696 (Staphylococcus aureus, UniProt P13955)
- PROTOCOL_NOTES: Inhibition of purified DHFR of multiresistant strain S. aureus 157/4696
Output should be the measured figure followed by the unit it is expressed in.

// below: answered compounds
Read the entry COc1cc(Cc2cnc(N)nc2N)cc(/C=C/C(=O)N2CCc3ccccc3C2c2ccc(Cl)nc2)c1OC (racemic) and write its reported IC50.
3 nM

Read the entry COc1cc(Cc2cnc(N)nc2N)cc(/C=C/C(=O)N2CCc3ccccc3C2c2ccc(C#N)cc2)c1OC (racemic) and write its reported IC50.
0.9 nM

Others:
Read the entry COc1ccc2c(c1)C(c1ccccn1)N(C(=O)/C=C/c1cc(Cc3cnc(N)nc3N)cc(OC)c1OC)CC2 (racemic) and write its reported IC50.
9 nM

====

For each record, write down the corresponding IC50.
- SYSTEM_NAME: UniProtKB P16184
- Sequence (P16184 1-206): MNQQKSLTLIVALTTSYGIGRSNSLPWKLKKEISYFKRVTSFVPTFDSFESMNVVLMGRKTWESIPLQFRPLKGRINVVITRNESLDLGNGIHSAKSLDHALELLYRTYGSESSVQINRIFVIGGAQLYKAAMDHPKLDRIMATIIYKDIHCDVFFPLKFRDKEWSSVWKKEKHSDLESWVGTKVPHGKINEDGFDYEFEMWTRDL
Answers are plain numbers, in µM.

// below: answered compounds
Read the entry COc1cc(Cc2cnc(N)nc2N)cc(/C=C/C(=O)N2CCc3ccccc3[C@@H]2c2ccccn2)c1OC [Example 1] and write its reported IC50.
8

Read the entry COc1cc(Cc2cnc(N)nc2N)cc(/C=C/C(=O)N2CCc3ccccc3C2c2ccc(C)cc2)c1OC (racemic) [Example 16] and write its reported IC50.
0.33

Read the entry COc1cc(Cc2cnc(N)nc2N)cc(/C=C/C(=O)N2CCc3ccccc3C2c2ccc(C#N)cc2)c1OC (racemic) [Example 23] and write its reported IC50.
10

// next item, IC50 requested
Read the entry COc1ccc2c(c1)C(c1ccccn1)N(C(=O)/C=C/c1cc(Cc3cnc(N)nc3N)cc(OC)c1OC)CC2 (racemic) [Example 8] and write its reported IC50.
5
